Measured melting point, listed per entry.

Example entries and their recorded answers appear below.
>>> assay_result("O=C(Nc1ccc(Oc2ccnc(N3CCC3)n2)c2ccccc12)c1cc(F)cc(N2CCOCC2)c1 [Compound B363]")
"196 to 197 °C"
>>> assay_result("O=C(Nc1ccc(OCc2ccncc2)c2ccccc12)c1cc(F)cc(OC2CCCCC2)c1 [Compound B235]")
"176 to 178 °C"
>>> assay_result("O=C(Nc1ccc(Oc2ccnc(N3CCC(O)C3)n2)c2ccccc12)c1cc(F)cc(N2CCOCC2)c1 (stereo not drawn) [Compound B339]")
"137 to 139 °C"

Per the records, this compound ( CC1CCCN1c1nccc(Oc2ccc(NC(=O)c3cc(F)cc(N4CCCCC4)c3)c3ccccc23)n1 (stereo not drawn) [Compound B404] ) has melting point equal to 93 to 94 °C

Per the records, this compound ( O=C(Nc1ccc(Oc2ccnc(NC3CCC3)n2)c2ccccc12)c1cc(F)cc(N2CCCCC2)c1 [Compound B383] ) has melting point equal to 112 to 114 °C

----------
# Target System: p38α (Homo sapiens, UniProt Q16539)
# Construct: p38 MAP Kinases are recombinant human full-length proteins with an amino-terminal GST fusion; GST (N)
# Sequence (Q16539 whole entry, the tested form may be a part): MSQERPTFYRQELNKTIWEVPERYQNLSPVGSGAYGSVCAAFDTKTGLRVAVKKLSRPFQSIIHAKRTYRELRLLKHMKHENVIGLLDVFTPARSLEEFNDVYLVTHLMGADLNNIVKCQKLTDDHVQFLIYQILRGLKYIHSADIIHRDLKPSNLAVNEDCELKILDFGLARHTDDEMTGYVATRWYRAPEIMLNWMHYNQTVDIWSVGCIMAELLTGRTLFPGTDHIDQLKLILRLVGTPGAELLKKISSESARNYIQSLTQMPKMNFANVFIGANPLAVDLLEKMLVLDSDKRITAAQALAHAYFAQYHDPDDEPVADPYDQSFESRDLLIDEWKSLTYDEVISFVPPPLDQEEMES
# Measurement Description: p38 MAP Kinase assay: inhibition of ATF2 phosphorylation, ELISA
# Protocol Conditions: ATF2 phosphorylation; read-out: [ENZ] P38 ALPHA, IC50, ELISA
# Excerpt: Compounds of the invention are screened for the ability to inhibit ATF2 phosphorylation by p38 MAP Kinase in vitro. […]
Readout Kind: log10(IC50) (log10 of the value in µM)
Values reflect log10 of reported IC50 (µM).

Example entries and their recorded answers appear below.
>>> assay_result("CC(C)(C)CNc1cc(F)cc(C(=O)Nc2ccc(OCCN3CCOCC3)c3ccccc23)c1")
-0.29
>>> assay_result("CC(=O)N1CCN(c2ccc(NC(=O)c3cc(F)cc(N4CCC(C)CC4)c3)c3ccccc23)CC1")
0.50
>>> assay_result("CC(=O)N1CCN(c2nccc(Oc3ccc(NC(=O)c4cc(F)cc(N5CCCCC5)c4)c4ccccc34)n2)CC1")
-2.13

// compound CC(C)N(C)c1nccc(Oc2ccc(NC(=O)c3cc(F)cc(N4CCCCC4)c3)c3ccccc23)n1 , assay p38α (Homo sapiens, UniProt Q16539), log10(IC50) value: -1.02

// compound O=C(Nc1ccc(OCCN2CCOCC2)c2ccccc12)c1cccc(N2CCCCC2)c1 , assay p38α (Homo sapiens, UniProt Q16539), log10(IC50) value: -0.33

// compound Cc1ccc(C)c(-c2cccc(C(=O)Nc3ccc(OCCN4CCOCC4)c4ccccc34)c2)c1 , assay p38α (Homo sapiens, UniProt Q16539), log10(IC50) value: -0.03

----------
Measured melting point, listed per entry.

>>> assay_result("O=C(Nc1ccc(Oc2ccnc(N3CCCC(O)C3)n2)c2ccccc12)c1cc(F)cc(N2CCCCC2)c1 (stereo not shown)")
"93 to 95 °C"
>>> assay_result("COCC(C)Nc1nccc(Oc2ccc(NC(=O)c3cc(F)cc(N4CCCCC4)c3)c3ccccc23)n1 (stereo not shown)")
"94 to 95 °C"
>>> assay_result("CC1CCC(Nc2nccc(Oc3ccc(NC(=O)c4cc(F)cc(N5CCOCC5)c4)c4ccccc34)n2)CC1 (stereo not shown)")
"116 to 117 °C"
>>> assay_result("CCC1CCC(Oc2cc(F)cc(C(=O)Nc3ccc(OCc4ccncc4)c4ccccc34)c2)CC1 (stereo not shown)")
"93 to 95 °C"
>>> assay_result("O=C(Nc1ccc(Oc2ccnc(NCCN3CCCCC3)n2)c2ccccc12)c1cc(F)cc(N2CCCCC2)c1")
"88 to 89 °C"

Per the records, this compound ( O=C(Nc1ccc(OCc2ccncc2)c2ccccc12)c1cc(F)cc(N2CCCCC2)c1 ) has melting point equal to 69 to 71 °C

Per the records, this compound ( O=C(Nc1ccc(Oc2ccnc(NC3CC3)n2)c2ccccc12)c1cc(F)cc(N2CCCCC2)c1 ) has melting point equal to 157 to 158 °C
